Please provide measured IC50 for the entries that follow.
# Target Or System: T1, Murine Gαq (amino acids 7-359), biotinylated (mouse, UniProt P21279 7-359, biotinylated with biotinamidohexanoic acid N-hydroxysuccinimide)
# T1 sequence (looked up): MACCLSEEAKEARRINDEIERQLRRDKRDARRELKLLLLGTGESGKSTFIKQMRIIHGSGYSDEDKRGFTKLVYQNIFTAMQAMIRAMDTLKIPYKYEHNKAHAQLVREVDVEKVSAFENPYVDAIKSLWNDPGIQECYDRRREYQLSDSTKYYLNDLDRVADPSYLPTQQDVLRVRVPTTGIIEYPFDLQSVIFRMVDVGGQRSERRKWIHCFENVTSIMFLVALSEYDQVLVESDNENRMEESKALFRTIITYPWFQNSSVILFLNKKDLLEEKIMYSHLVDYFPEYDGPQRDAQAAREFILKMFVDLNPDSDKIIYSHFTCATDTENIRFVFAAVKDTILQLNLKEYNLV
# Assay Info: bead-based flow cytometry competition assay
Respond numerically; units are nM and should not be typed.

**Query** // lookup IC50 for RGS2 RH domain (residues 72-203) K175A (domain or fragment, human) GEFGSPSPEEAQLWSEAFDELLASKYGLAAFRAFLKSEFCEENIEFWLACEDFKKTKSPQKLSSKARKIYTDFIEKEAPKEINIDFQTKTLIAQNIQEATSGCFTTAQARVYSLMENNSYPRFLESEFYQDLCKKPQ
**Result** 560

**Query** Next: RGS2 RH domain (residues 72-203), wild type (domain or fragment, human) GEFGSPSPEEAQLWSEAFDELLASKYGLAAFRAFLKSEFCEENIEFWLACEDFKKTKSPQKLSSKARKIYTDFIEKEAPKEINIDFQTKTLIAQNIQEATSGCFTTAQKRVYSLMENNSYPRFLESEFYQDLCKKPQ
**Result** 270
